Entry source: patent US20220144812A1

# Tested on: H3K18Ac in HB-CLS-2 cells
# TEST NAME: H3K18AC in-cell western (ICW) assay
# Type: cell-based
# TEST CONTEXT: H3K18Ac in-cell western; read-out: CREBBP ICW IC50
pIC50: −log10 of the molar value.
REPORTED ENDPOINT: pIC50

A selection of reference data follows.
| MOLECULE | TARGET OR SYSTEM | pIC50 |
| --- | --- | --- |
| CCc1ncc(CN(C)C(=O)c2cc(-c3ccc(NCCNC)c(C)n3)nc3ccc(COC)cc23)n1C [Compound 513] | H3K18Ac in HB-CLS-2 cells | 6.33 |
| CCn1ncc(CN(C)C(=O)c2nc(-c3cc(C)c4c(c3)NCCN4)nc3ccc(Cl)cc23)c1C [Compound 458] | H3K18Ac in HB-CLS-2 cells | 5.98 |
| CCn1ncc(CN(C)C(=O)c2nc(-c3cc(C)nc(NCCNC)c3)nc3ccc(COC)cc23)c1C [Compound 516] | H3K18Ac in HB-CLS-2 cells | 6.71 |
| CCn1ncc(CN(C)C(=O)c2nc(-c3ccc(OCCCO)cc3C)nc3ccc(Cl)cc23)c1C [Compound 53] | H3K18Ac in HB-CLS-2 cells | 6.24 |
| CCn1ncc(CN(C)C(=O)c2nc(-c3cc(C)c4c(=O)[nH][nH]c4c3)nc3ccc(Cl)cc23)c1C [Compound 468] | H3K18Ac in HB-CLS-2 cells | 6.67 |

[a] CCn1ncc(CN(C)C(=O)c2cc(-c3ccc(NCCN(C)C)c(OC)c3)nc3ccc(Cl)cc23)c1C [Compound 585]
[b] CCn1ncc(CN(C)C(=O)c2cc(-c3ccc(N(C)CCN)nn3)nc3ccc(Cl)cc23)c1C [Compound 505]
query: Select the item with the higher value of pIC50 from the options a and b listed. Reply briefly: the label of your chosen item.
result: a
